The entries below are paired with their reported % blocking of Gal3-α-synuclein aggregates binding.
Target: T1, human Galectin-3 (Gal3), full-length recombinant (human, UniProt P17931 2-250)
T1 construct: treated here as one molecule; also called hGAL3; hGal3
T1 sequence (P17931 2-250 limits assumed): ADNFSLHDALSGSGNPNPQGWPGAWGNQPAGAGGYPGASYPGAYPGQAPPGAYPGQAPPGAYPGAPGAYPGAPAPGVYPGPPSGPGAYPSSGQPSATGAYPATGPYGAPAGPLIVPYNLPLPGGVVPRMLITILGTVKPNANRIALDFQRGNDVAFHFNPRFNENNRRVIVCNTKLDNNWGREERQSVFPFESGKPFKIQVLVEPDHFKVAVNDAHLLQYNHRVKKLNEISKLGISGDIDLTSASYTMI
Assay: blocking ELISA, Gal3 coated, biotin-α-synuclein aggregates

% blocking of Gal3-α-synuclein aggregates binding for F847C.12F12 (antibody, V domains shown, also called 84712F12) VH: QIQLVQSGPELKKPGETVKISCKASGYTFTNYGMNWVKQAPGKGLKWMGWINTYTGEPTYVDDFKGRFAFSLETSASTAYLRINNLKNEDTATYFCAKFGNYVGAMDYWGQGTSVTVSS VL: DIQVIQSPSSLSASLGDTITITCHASQNINVWLSWYQQKPGNIPKLLIYKASNLHTGVPSRFSGSGSGTGFTLTISSLQPEDIATYYCQQGQSYPYTFGGGTKLELKR ?
> 90%

% blocking of Gal3-α-synuclein aggregates binding for F847C.11B1 (antibody, human IgG4 S228P, kappa, V domains shown, also called 847.11B1) VH: EVQLQQSGPELVKPGASVKISCKASGNTFTDHNMHWVKQSHGKSLEWIGYIYPYNGGTGYNQKFKSKATLTVDNSSSTVYMELRSLTSEDSAVYYCARGEYDYLAWFAYWGQGTLVTVSA VL: EIVLTQSPASLSVTTGEKVTIRCITSIDIDDDMNWYQQKPGEPPKLLISEGNTLRPGVPSRFSSSGYGTDFVFTIENTLSEDVADYYCLQSDNKPLTFGAGTKLELKR ?
< 50%

% blocking of Gal3-α-synuclein aggregates binding for 13G4.2F8 (antibody, human IgG4 S228P, kappa, V domains shown) VH: QVQLQQPGAELVKPGASVKLSCKASGYTFTSYWMHWVKQRPGQGLEWIGMIHPNSGSTDYNEKFKNKATLNVDKSSSTAYIQLSSLTSEDSAVYYCTRWGIYYYARDYWGQGTTLTVSS VL: DIVMTQSQKFMSTSVGERVSITCKASQNVGTNVAWYQQKAGQSLELLIYGASNRHTGVPDRFTGSGSGTDFTLTITNVQSEDMTNYFCEQYSNFPLTFGAGTKLELKR ?
< 50%

% blocking of Gal3-α-synuclein aggregates binding for 15G7.2A7 (antibody, human IgG4 S228P, kappa, V domains shown, also called 15FG7.2A7) VH: EVQLQQSGPELVKPGASVKISCKASGYTFTDYYMNWVKQSHGKSLEWIGDINPNNGGTNYNQKFKGKATLTVDKSSSTAYMELRSLTSEDSAVYYCTSGYGFPYWGQGTLVTVSA VL: DIQMNQSPSSLSASLGDTISITCRASQNINIWLSWYQQKPGNIPQLLIYKASNLHTGVPSRFSGSGSGTDFTLTISSLQPEDIATYYCLQGQSYPLTFGAGTKLVMKR ?
> 90%

Where do these numbers come from? They come from patent US20250145722A1.
